System: PTP 1B (Homo sapiens)
Construct: made in house; host or cells: Sf-9 insect cells (pFastBac-G2T)
Sequence (P18031 whole entry): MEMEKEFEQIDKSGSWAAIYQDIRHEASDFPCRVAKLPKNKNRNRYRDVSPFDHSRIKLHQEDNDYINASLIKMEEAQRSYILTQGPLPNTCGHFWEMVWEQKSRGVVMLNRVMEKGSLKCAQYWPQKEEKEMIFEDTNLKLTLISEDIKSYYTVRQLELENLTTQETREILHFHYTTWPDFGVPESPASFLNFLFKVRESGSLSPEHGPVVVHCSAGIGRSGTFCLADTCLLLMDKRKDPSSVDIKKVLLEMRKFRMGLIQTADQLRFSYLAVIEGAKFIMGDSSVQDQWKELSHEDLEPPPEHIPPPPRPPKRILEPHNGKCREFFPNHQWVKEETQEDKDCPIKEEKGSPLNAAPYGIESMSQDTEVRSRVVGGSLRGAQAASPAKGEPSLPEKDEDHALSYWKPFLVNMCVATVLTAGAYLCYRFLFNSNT
Test Protocol: PTP IC50 assay, pNPP or FDP as substrate
Type: biochemical
Condition Set: PTP IC50 1B, pNPP or FDP as substrate, 25° C.
pIC50: −log10 of the molar value.

Smiles Structure: NC(=O)c1cc(Oc2ccc(S(=O)(=O)C(F)(F)F)cc2[N+](=O)[O-])cc(Oc2ccc(S(=O)(=O)C(F)(F)F)cc2[N+](=O)[O-])c1
pIC50: < 4.00

====

System: PTP EPSILON (Homo sapiens, UniProt P23469)
Construct: made in house; host or cells: Sf-9 insect cells (pFastBac-G2T); a pGEX 6P-1 construct also existed
Sequence (P23469 80-393 limits assumed): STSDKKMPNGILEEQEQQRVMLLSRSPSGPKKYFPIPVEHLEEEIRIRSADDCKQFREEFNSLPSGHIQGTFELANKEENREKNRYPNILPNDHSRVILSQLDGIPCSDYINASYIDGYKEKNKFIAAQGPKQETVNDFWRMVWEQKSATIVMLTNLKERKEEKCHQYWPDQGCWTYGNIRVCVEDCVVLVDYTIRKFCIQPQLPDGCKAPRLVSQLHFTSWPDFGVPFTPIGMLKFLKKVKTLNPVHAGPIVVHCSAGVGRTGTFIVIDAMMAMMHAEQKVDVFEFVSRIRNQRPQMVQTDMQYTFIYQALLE
Test Protocol: PTP IC50 assay, pNPP or FDP as substrate
Type: biochemical
Condition Set: PTP IC50 Epilson, pNPP or FDP as substrate, 25° C.

Smiles Structure: NC(=O)c1cc(Oc2ccc(S(=O)(=O)C(F)(F)F)cc2[N+](=O)[O-])cc(Oc2ccc(S(=O)(=O)C(F)(F)F)cc2[N+](=O)[O-])c1
IC50 [µM]: 4.3
